Every entry's value here was drawn from patent US20230140290A1.

test system: A549 cells; assay: Cytotoxicity assay (AlamarBlue); details: read-out: CC50 (μM), cytotoxic concentration 50%; A549 cell line, 48 h
Doc: threshold 40 µM (exclusive). Items with CC50 beneath it return rule met; others return rule not met.

Use these answered entries as a reference point.
COc1ccc(CNc2ccc(NC(=O)c3cc(Cl)ccc3O)c(Cl)c2)cc1 [Compound 100]: rule not met
O=C(Nc1ccc(F)c(F)c1)c1cc(Cl)ccc1O [Compound 15]: rule met

Strictly below 40 µM in CC50? O=C(Nc1ccc(N(CC2CC2)CC2CC2)cc1Cl)c1cc(Cl)ccc1O [Compound 92]
rule met

Threshold test, CC50 < 40 µM: O=C(NCc1cc(F)cc(C(F)(F)F)c1)c1cc(Cl)ccc1O [Compound 35]
rule met

Quick check: does O=C(Nc1ccc(NCc2cnccc2Cl)cc1Cl)c1cc(Cl)ccc1O [Compound 110] have CC50 under 40 µM?
rule not met

====

Please go through the items and note down their inhibition at 10 µM.
test system: HAdV5-GFP; assay: Plaque assay (inhibition of HAdV plaque formation); assay type: cell-based, HAdV-5; details: read-out: Plaque Assay (%) Inhibition (10 μM)
Numbers only, in %.

CCCCCCC(C)Nc1ccc(NC(=O)c2cc(Cl)ccc2O)c(Cl)c1 (stereo not drawn): 100
O=C(Nc1ccc(NC2CCCC2)cc1F)c1cc(Cl)ccc1O: 98.7

Items follow; give inhibition at 10 µM for each.
1. O=C(Nc1ccc(NC2CCCCC2)cc1Cl)c1cc(Cl)ccc1O
2. CC(C)(C)OC(=O)NCCNc1ccc(NC(=O)c2cc(Cl)ccc2O)c(Cl)c1
3. O=C(NCc1cc(F)cc(C(F)(F)F)c1)c1cc(Cl)ccc1O
4. CS(=O)(=O)Nc1ccc(Cl)cc1C(=O)N[C@@H](Cc1ccccc1)C(=O)Nc1ccc([N+](=O)[O-])cc1Cl

1: 99.5; 2: 100; 3: 98.1; 4: 88.9

// batch mode: one inhibition at 10 µM value per listed entry
1. O=C(NCc1ccc(F)cc1F)c1cc(Cl)ccc1O
2. O=C(CNC(=O)c1cc(Cl)ccc1O)Nc1ccc([N+](=O)[O-])cc1Cl
3. O=C(Nc1cc(C(F)(F)F)cc(C(F)(F)F)c1)c1cc(Cl)ccc1O

74.7
100
100

====

tested on: A549 cells; experiment: Cytotoxicity assay (AlamarBlue); conditions: read-out: CC50 (μM), cytotoxic concentration 50%; A549 cell line, 48 h
Could you please report measured CC50 for the items listed next?
One number for each entry, in µM.

C[C@@H](NC(=O)c1cc(Cl)ccc1O)c1ccc(Cl)cc1: 31.1
O=C(Nc1ccc(NCc2ccc(O)cc2)cc1Cl)c1cc(Cl)ccc1O: 116
CC(C)CNc1ccc(NC(=O)c2cc(Cl)ccc2O)c(Cl)c1: 60

Your task in this section: give CC50 for each listed record.
1. CC(C)(C)OC(=O)CC[C@H](NC(=O)c1cc(Cl)ccc1O)C(=O)Nc1ccc([N+](=O)[O-])cc1Cl
2. CN(C)c1ccc(NC(=O)c2cc(Cl)ccc2O)c(Cl)c1
3. CC1(Nc2ccc(NC(=O)c3cc(Cl)ccc3O)c(Cl)c2)CCCC1
4. CCCN(CCC)c1ccc(NC(=O)c2cc(Cl)ccc2O)c(Cl)c1

1: 22.9; 2: 85.1; 3: 157; 4: 10.7

====

tested on: HAdV5-GFP; assay: Plaque assay (inhibition of HAdV plaque formation); assay type: cell-based, HAdV-5; conditions: read-out: Plaque Assay (%) Inhibition (10 μM)
Would you kindly list inhibition at 10 µM for each of these compounds?
Numbers only, in %.

Solved entries (count: 5):
CC(C)[C@H](NC(=O)c1cc(Cl)ccc1NS(C)(=O)=O)C(=O)Nc1ccc([N+](=O)[O-])cc1Cl: 99.1
O=C(Nc1ccc(NCc2ccc(F)cc2)cc1Cl)c1cc(Cl)ccc1O: 100
CC(C)[C@H](NC(=O)c1cc(Cl)ccc1O)C(=O)Nc1cc(C(F)(F)F)cc(C(F)(F)F)c1: 99.5
CS(=O)(=O)Nc1ccc(Cl)cc1C(=O)NCC(=O)Nc1ccc([N+](=O)[O-])cc1Cl: 99.6
O=C(NCC1CCCCC1)c1cc(Cl)ccc1O: 100

Please give inhibition at 10 µM, item by item, for the list that follows.
1. CC(=O)N1CCN(C(=O)c2cc(Cl)ccc2O)CC1
2. CC(C)(C)OC(=O)N1CCC(CNc2ccc(NC(=O)c3cc(Cl)ccc3O)c(Cl)c2)CC1
3. O=C(NCc1ccc(C(F)(F)F)c(F)c1)c1cc(Cl)ccc1O

1: 0; 2: 97.8; 3: 99
